target: Mas-related G-protein coupled receptor member X1 (Homo sapiens); assay: blockade of BAM8-22-evoked MrgX1 calcium response – HEK293 cells, Fluo-4 calcium flux, primary screen (AID 588676); details: Fluo-4, BAM8-22 antagonism, at 10 µM; active compounds read low;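 on B-score: peak minus trough fluorescence over baseline after final BAM8-22 challenge near maximal dose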
About 3,900 (1.3%) of roughly 310,000 compounds were called active. The sample holds actives, similar compounds and a random draw of the others, so the mix is not that of the screen.
MEASUREMENT_LABEL: B-score

Sample records with B-score:
> print(dat)
                                  structure          result
1  CCOC(=O)C1=C(O)/C(=C/c2cc(C)n(-c3ccccc3)c2C)N=C1C  -4.95 (active)
2  COCCN(Cc1cc2cc3c(cc2nc1Cl)OCO3)C(=O)c1cccc(C)c1        inactive
3  COC(=O)C1=C(O)/C(=C/c2ccc(OCC(=O)Nc3ccccc3)cc2)N=C1C        inactive
4        Cn1cccc1C(=O)NNC(=O)COc1ccc(Br)cc1  -5.34 (active)

Here is the next item to consider.
Exam item: # lookup: Mas-related G-protein coupled receptor member X1 (Homo sapiens) B-score, key = CCOC(=O)C1=C(O)/C(=C/c2ccc(OCC(=O)Nc3ccc(C)cc3)cc2)N=C1C
Marked response: inactive
